All figures here come from ChEMBL document CHEMBL1138192.

- target_system: Inositol 1,4,5-trisphosphate-gated calcium channel ITPR1 (Rattus norvegicus)
- experimental_protocol: Activity at rat IP3 type 1 receptor expressed in chicken DT40 cell by calcium release
- Type: functional, cell-based
- Set-up: concentration or dose not given beside the values
quantity: Activity (%)

{"smiles_structure": "Nc1ncnc2c1ncn2[C@@H]1O[C@H](CO)[C@@H](C[C@H]2O[C@H](CO)[C@@H](OP(=O)(O)O)[C@H](OP(=O)(O)O)[C@H]2O)[C@H]1OP(=O)(O)O", "quantity": "Activity", "units_text": "%", "result": 81}
{"smiles_structure": "O=c1ccn([C@@H]2O[C@H](CO)[C@@H](C[C@H]3O[C@H](CO)[C@@H](OP(=O)(O)O)[C@H](OP(=O)(O)O)[C@H]3O)[C@H]2OP(=O)(O)O)c(=O)[nH]1", "quantity": "Activity", "units_text": "%", "result": 79}
{"smiles_structure": "O=c1ccn([C@@H]2O[C@H](CO)[C@@H](O[C@H]3O[C@H](CO)[C@@H](OP(=O)(O)O)[C@H](OP(=O)(O)O)[C@H]3O)[C@H]2OP(=O)(O)O)c(=O)[nH]1", "quantity": "Activity", "units_text": "%", "result": 68}
{"smiles_structure": "O=P(O)(O)OC[C@H]1O[C@H](CO)[C@@H](OP(=O)(O)O)[C@H](OP(=O)(O)O)[C@H]1O", "quantity": "Activity", "units_text": "%", "result": 73}
{"smiles_structure": "O=P(O)(O)OCCC[C@H]1O[C@H](CO)[C@@H](OP(=O)(O)O)[C@H](OP(=O)(O)O)[C@H]1O", "quantity": "Activity", "units_text": "%", "result": 69}
{"smiles_structure": "O=P(O)(O)OCCC[C@@H]1O[C@H](CO)[C@@H](OP(=O)(O)O)[C@H](OP(=O)(O)O)[C@H]1O", "quantity": "Activity", "units_text": "%", "result": 64}
